Recorded measurements of growth, one per entry
test system: K-562 leukemia; assay: NCI-60 one-dose screen, 48 h (100 = growth as untreated, 0 = no growth, -100 = all killed); conditions: 10 µM unless noted
About 83,000 compounds went through this panel and 20% of them were active in at least one assay; those are over-represented in the sample as a whole.
Field format: number, assumed %, no unit text.

| compound | recorded-result |
| --- | --- |
| Cc1cc(C(C)(C)C)ccc1O | 103 |
| CCC(Br)(CC)C(=O)NC(N)=O | 105 |
| CCCCCCCCCCCCCCCCCC1OCC(COC(=O)O[C@@H](C(=O)O[C@H]2C[C@@]3(O)[C@@H](OC(=O)c4ccccc4)[C@@H]4[C@]5(OC(C)=O)CO[C@@H]5C[C@H](O)[C@@]4(C)C(=O)[C@H](OC(C)=O)C(=C2C)C3(C)C)[C@@H](NC(=O)c2ccccc2)c2ccccc2)O1 (stereo not given in full) | 18.8 |

Query :: What does the record list as growth for Oc1cc(N2CC2)c(O)cc1N1CC1 ?
Result :: 17.1

Query :: What does the record list as growth for O=[N+]([O-])c1ccc2scc3c4ccccc4nc-3c2c1 ?
Result :: 3.96

====

Test system: HCT-15 colon
Assay: NCI-60 one-dose screen, 48 h (100 = growth as untreated, 0 = no growth, -100 = all killed)
Settings: 10 µM unless noted
Description: Growth inhibition of the HCT-15 human tumor cell line is measured as a screen for anti-cancer activity. Cells are grown in 96 well plates and exposed to the test compound for 48 hours. Compounds are tested at a single concentration, which is 10^-5 M for most compounds. The reported endpoint is percent growth (GI% or GIPRCNT), where numbers from 0 - 100% represent growth inhibition, and numbers from -100% - 0 represent cell death. For example, a value of 40 represents 60% growth inhibition. […]
About 83,000 compounds went through this panel and 20% of them were active in at least one assay; those are over-represented in the sample as a whole.
readout: growth (%)
Field format: number, assumed %, no unit text.

| compound | readout-unit | growth |
| --- | --- | --- |
| CC1(C)N(Nc2ccccc2)C(=O)C2CCCN21 (stereo not given) | % | 44.5 |
| O=S(=O)(F)c1cccc(Cl)c1C[P+](c1ccccc1)(c1ccccc1)c1ccccc1 | % | 91.7 |
| CC(=O)Cc1ccc2c(c1)OCO2 | % | 113 |
| COC(=O)C12C3C4C1C1C2C3C41NC(=O)c1csc([C@@H](C[C@H](C(C)C)N(C)C(=O)[C@@H](NC(=O)[C@H]2CCCCN2C)C2CC2)OC(C)=O)n1 (stereo not given in full) | % | 12.6 |
| Cc1nc2ccccc2c(=O)n1-c1ccccc1F | % | 103 |
| Cc1cc(C(C)(C)C)ccc1O | % | 109 |

Query :: Give HCT-15 colon growth for CC1(C)N=C(N)N=C(N)N1c1ccc(CCC(=O)Nc2ccc(S(=O)(=O)F)cc2)cc1
Result :: 46.2

Query :: Give HCT-15 colon growth for CCC(=O)C(CC(C)N1CCCCCC1)(c1ccccc1)c1ccccc1 (stereo not given)
Result :: 87.2

Query :: Give HCT-15 colon growth for NC1CN2CCC1CC2 (stereo not given)
Result :: 99.3

Query :: Give HCT-15 colon growth for Cc1ccc(S(=O)(=O)n2cc([C@@]3(O)C[C@H](CSC#N)OC3=O)c3ccccc32)cc1
Result :: 70

Query :: Give HCT-15 colon growth for O=c1c2ccccc2nc(-c2ccccc2Cl)n1-c1nnc(C(F)(F)F)s1
Result :: 21.1

Query :: Give HCT-15 colon growth for CCN1C(=O)CC(=O)N(CC)C1=S
Result :: 96.4

Query :: Give HCT-15 colon growth for CC(C)COC(=O)Cc1ccccc1
Result :: 109

Query :: Give HCT-15 colon growth for Cn1cc(C(=O)C[n+]2ccccc2)c2ccccc21
Result :: 110

Query :: Give HCT-15 colon growth for C[N+]1(C)CCCC1c1cccnc1 (stereo not given)
Result :: 104

====

tested on: MOLT-4 leukemia; experiment: NCI-60 one-dose screen, 48 h (100 = growth as untreated, 0 = no growth, -100 = all killed); conditions: 10 µM unless noted
This is part of a sample that, as a whole, favours compounds with a hit. Of some 83,000 tested, about 20% had one in any assay.
hey, just use Met if measured growth is less than 50%, otherwise Not met

# example entries with known answers
| compound | category-label |
| --- | --- |
| COc1cc2c(cc1OC)-c1c3c(cc4c1[C@@H](C2)N(C)CC4)OCO3 | Met |
| N#CC(C#N)=C(C#N)C#N | Not met |

Query :: Is it true that growth reported for CC/C(Cc1ccccc1)=C(\c1ccc(OCCN2CCCC2)cc1)c1ccc(OC(=O)NCc2ccccc2)cc1 is less than 50%?
Result :: Met

Query :: Is it true that growth reported for CC12CCC3C(CCC4CC(O)CCC43C)C1CCC2=O (stereo not given) is less than 50%?
Result :: Not met

Query :: Is it true that growth reported for C[C@]12CCc3nc(-c4ccc(O)c(O)c4)sc3C1=CC[C@@H]1[C@@H]2CC[C@]2(C)C(=O)CC[C@@H]12 is less than 50%?
Result :: Met

====

test system: OVCAR-8 ovarian; assay: NCI-60 one-dose screen, 48 h; settings: 10 µM unless noted
About 83,000 compounds went through this panel and 20% of them were active in at least one assay; those are over-represented in the sample as a whole. The source made the active and inactive calls. Rule for the calls: active = growth percent below 10; inactive = the rest.
A correct response names exactly one class from active, inactive

# example entries with known answers
| compound | category-label |
| --- | --- |
| CC[C@H](C)[C@H](NC(=O)[C@H]1CCCCN1C)C(=O)N(C)[C@H](C[C@@H](OC(C)=O)c1cccc(C(=O)N[C@@H](Cc2ccccc2)C[C@H](C)C(=O)OC)n1)C(C)C | inactive |
| Cc1ccc(NC2=N[C@]34CC(=O)CC[C@]3(C)[C@H]3CC[C@]5(C)C(=O)CC[C@H]5[C@@H]3C[C@@H]4S2)c(C)c1 | inactive |

Query :: // return assay outcome for S=P(SP(=S)(c1ccccc1)c1ccccc1)(c1ccccc1)c1ccccc1
Result :: inactive

Query :: // return assay outcome for C/C(=N/OC(=O)N(C)C)c1ccc(Cl)c(Cl)c1
Result :: inactive

Query :: // return assay outcome for CC1(C)CN=C(NN=C(/C=C/c2ccc(C(F)(F)F)cc2)/C=C/c2ccc(C(F)(F)F)cc2)NC1
Result :: active

Query :: // return assay outcome for CC(Oc1ccc(-c2ccccc2)cc1)C(=O)O (stereo not given)
Result :: inactive

Query :: // return assay outcome for CCCCCCCCCCCCCCCC[N+](C)(C)C
Result :: active

====

system: MCF7 breast; test: NCI-60 one-dose screen, 48 h (100 = growth as untreated, 0 = no growth, -100 = all killed); details: 10 µM unless noted
This is part of a sample that, as a whole, favours compounds with a hit. Of some 83,000 tested, about 20% had one in any assay.
Recorded measurements of growth, one per entry
Field format: number, assumed %, no unit text.

Query :: What does the record list as growth for N#CC(N)c1ccccc1 (centres undefined) ?
Result :: 111

Query :: What does the record list as growth for CC12CCC3C4CCC(=O)C=C4CCC3C1CC1CC(=O)OC12 (centres undefined) ?
Result :: 98.7

Query :: What does the record list as growth for CNC(=O)Oc1ccc(Cl)cc1SSc1cc(Cl)ccc1OC(=O)NC ?
Result :: 91.8

Query :: What does the record list as growth for Oc1ccccc1C=NCCN=Cc1ccccc1O ?
Result :: 97.7

Query :: What does the record list as growth for CC1(C)S[C@H]2CC[C@H]3OC(=O)[C@@H]1N23 ?
Result :: 103

====

system: A549/ATCC NSCLC; assay: NCI-60 one-dose screen, 48 h (100 = growth as untreated, 0 = no growth, -100 = all killed); details: 10 µM unless noted
The panel holds about 83,000 compounds, 20% with a hit somewhere; the sample as a whole holds those more often.
readout: growth (%)
Field format: number, assumed %, no unit text.

| compound | growth / % |
| --- | --- |
| C[C@H](O)CCC(=O)c1ccoc1 | 97 |

Query :: Give A549/ATCC NSCLC growth for C[C@]12CCC3[C@@H](C[C@@H]4SC(Nc5ccccc5)=N[C@@]45CC(=O)CC[C@]35C)[C@@H]1CCC2=O (stereo not given in full)
Result :: 33.5

Query :: Give A549/ATCC NSCLC growth for CCOC(=O)P(=O)(OCC)OCC
Result :: 101

Query :: Give A549/ATCC NSCLC growth for C=CC[PH+](c1ccccc1)c1ccccc1.C=CC[PH+](c1ccccc1)c1ccccc1.[Pt+2].[S-]c1ncccn1.[S-]c1ncccn1
Result :: 71.4

Query :: Give A549/ATCC NSCLC growth for COC(=O)C1=CO[C@@H](C)[C@@H]2CN3CCc4c([nH]c5cc(OC)ccc45)[C@@H]3C[C@H]12
Result :: 95.8
